Let's look at some molecules and their measured TGI.
- Test system: DU-145 prostate
- protocol.summary: NCI tumour cell line growth inhibition, 48 h
reported.endpoint: TGI

[
  {
    "molecule": "N#CCCN(CCC#N)c1ccc(/C=C2\\SC(=S)NC2=O)cc1",
    "value.measured": "> 100 µM"
  },
  {
    "molecule": "c1ccc2cc(Cn3cc[n+](Cc4ccc5ccccc5c4)c3)ccc2c1",
    "value.measured": "14.7 µM"
  },
  {
    "molecule": "O=c1c(Nc2ccccc2)cn(CCOc2ccc(Cl)cc2)c(=O)n1CCOc1ccc(Cl)cc1",
    "value.measured": "> 100 µM"
  },
  {
    "molecule": "Cc1c(N)nc([C@H](CC(N)=O)NC[C@H](N)C(N)=O)nc1C(=O)N[C@H](C(=O)N[C@H](C)[C@@H](O)CC(=O)N[C@H](C(=O)NC(O[C@@H]1O[C@@H](C)[C@@H](N)[C@@H](O)[C@H]1O)C(O)c1nc(-c2nc(C(=O)NCCCCN)cs2)cs1)[C@@H](C)O)[C@@H](O[C@@H]1O[C@@H](CO)[C@@H](O)[C@H](O)[C@@H]1O[C@H]1O[C@H](CO)[C@@H](O)[C@H](OC(N)=O)[C@@H]1O)c1c[nH]cn1 (some centres undefined)",
    "value.measured": "> 50 µM"
  }
]
